target: hemagglutinin (HA) of influenza virus B/Florida/04/06 (Yamagata) (influenza B virus); experiment: cell-based or functional assay

binder	neutralization titer, nM
MD1224 (VHH) EVQLVESGGGLVQPGGSLKLSCAASGFTFSTSWMYWLRQAPGKGLEWVSVINTDGGTYYADSVKDRFTISRDNAKDTLYLQMSSLKSEDTAVYYCAKDWGGPEPTRGQGTQVTVSSAAAGGGGSGGGGSGGGGSGGGGSGGGGSGGGGSGGGGSEVQLVESGGGLVQPGGSLKLSCAASGFTFSTSWMYWLRQAPGKGLEWVSVINTDGGTYYADSVKDRFTISRDNAKDTLYLQMSSLKSEDTAVYYCAKDWGGPEPTRGQGTQVTVSS	0.8
